// data source = patent US7186413B2

Tested on: KB cells
testDescription: standard cytotoxicity assay with KB cells
particulars: Homo sapiens, KB, 48 h
assayEndpoint: pIC50
In simple prose, pIC50 is minus the logarithm base ten of a concentration in moles per litre.

Using the record for COc1cccc2c1C(=O)c1c(O)c3c(c(O)c1C2=O)C[C@@](O)(C(C)=O)C[C@@H]3O[C@H]1C[C@H](N)[C@H](O)[C@H](C)O1 [daunomycin] , state its measured pIC50. 6.69
